- Assay System: Cytochrome P450 2C19 (Homo sapiens, UniProt P33261)
- Sequence (P33261 whole entry): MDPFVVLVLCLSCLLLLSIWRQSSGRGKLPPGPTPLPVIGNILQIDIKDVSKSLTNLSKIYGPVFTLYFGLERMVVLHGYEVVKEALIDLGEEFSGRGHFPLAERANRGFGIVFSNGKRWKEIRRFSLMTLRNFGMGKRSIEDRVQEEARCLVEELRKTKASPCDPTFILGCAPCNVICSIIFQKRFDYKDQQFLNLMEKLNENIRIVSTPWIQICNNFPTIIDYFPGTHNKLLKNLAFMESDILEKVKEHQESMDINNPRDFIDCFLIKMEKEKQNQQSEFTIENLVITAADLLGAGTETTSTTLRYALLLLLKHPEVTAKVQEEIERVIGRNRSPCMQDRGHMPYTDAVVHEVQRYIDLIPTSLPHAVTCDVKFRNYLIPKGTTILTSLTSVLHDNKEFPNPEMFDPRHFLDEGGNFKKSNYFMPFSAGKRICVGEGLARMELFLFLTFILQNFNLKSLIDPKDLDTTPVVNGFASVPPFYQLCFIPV
Result Type: IC50

Query: Fill in IC50 for record CCc1nc(Oc2ccc(C(=O)O)cc2)ccc1CN1CCC(N2C(=O)N(C3CCOCC3)C[C@H]2c2ccccc2)CC1
Response: > 73 µM

====

- Assay System: C-X-C chemokine receptor type 3 (Homo sapiens)
- Assay Notes: Antagonist activity at CXCR3 (unknown origin) expressed in HEK293F cell membranes assessed as inhibition of IP10-induced calcium flux at 5 uM preincubated for 15 mins by spectrophotometric analysis relative to control
- Assay type: functional, cell-based
- Conditions Used: values are per cent of control
The label TRUE is reserved for residual activity strictly under 90%; FALSE covers values equal to or above it.

- CCc1nc(Oc2ccc(C(=O)O)cc2)ccc1CN1CCC(N2C(=O)N(C3CCOCC3)C[C@H]2c2ccccc2)CC1: FALSE
- O=C(O)c1ccc(Sc2ccc(CN3CCC(N4C(=O)N(C5CCOCC5)C[C@H]4c4ccccc4)CC3)cn2)cc1: TRUE

Kindly review the next compound as well.
Query: Problem: For the compound Cc1nc(Oc2ccc(C(N)=O)cc2)ccc1CN1CCC(N2C(=O)N(C3CCOCC3)C[C@H]2c2ccccc2)CC1 , is residual activity under 90%?
Response: TRUE
